Target: AXL (human catalytic domain) (Homo sapiens)
Construct: purchased Upstate Ltd. 14-512
Sequence (P30530 473-894): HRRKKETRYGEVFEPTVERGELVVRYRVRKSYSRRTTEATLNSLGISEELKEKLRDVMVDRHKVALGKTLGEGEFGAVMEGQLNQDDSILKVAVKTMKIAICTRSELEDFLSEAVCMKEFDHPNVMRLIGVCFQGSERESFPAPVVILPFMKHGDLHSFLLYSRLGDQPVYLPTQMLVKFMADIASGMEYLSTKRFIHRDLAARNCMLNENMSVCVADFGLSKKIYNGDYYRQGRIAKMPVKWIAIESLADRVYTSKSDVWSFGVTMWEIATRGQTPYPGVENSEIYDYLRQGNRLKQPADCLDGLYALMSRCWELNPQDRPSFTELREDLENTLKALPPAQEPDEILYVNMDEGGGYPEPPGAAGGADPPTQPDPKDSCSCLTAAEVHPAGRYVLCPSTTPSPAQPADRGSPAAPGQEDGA
Test: AXL (human catalytic domain) Enzyme Activity Assay (IMAP fluorescence polarisation)
Format: biochemical
Settings: further data set (WW-001 through WW-169, XX-001 through XX-469, YY-001 through YY-016, ZZ-001 through ZZ-003); 150 μM ATP
pIC50: −log10 of the molar value.
observation-type: pIC50

O=S(=O)(C1CC1)n1cc(-c2cccc3nc(Nc4ccc(OCCN5CCCC5)cc4)nn23)cn1	≥ 7.00
Cc1ccc(COc2cccc(-c3cccc4nc(Nc5ccc(OCCN6CCCC6)cc5)nn34)c2)cc1	5.00 to 6.00
c1csc(SCCn2cc(-c3cccc4nc(Nc5ccc(OCCN6CCCC6)cc5)nn34)cn2)c1	6.00 to 7.00
CC(c1ccccc1)n1cc(-c2cccc3nc(Nc4ccc(OCCN5CCCC5)cc4)nn23)cn1 (stereo not shown)	6.00 to 7.00
O=C(Nc1nc2cccc(-c3ccc(OCC4CC4)cc3)n2n1)C1CC1	5.00 to 6.00

So what pIC50 did CC(=O)Nc1cccc(-c2cccc3nc(NC(=O)C4CC4)nn23)c1 get with AXL (human catalytic domain) (Homo sapiens)?
5.00 to 6.00

pIC50 of Oc1ccc(-c2cccc3nc(Nc4ccc(OCCN5CCCC5)cc4)nn23)cc1 on AXL (human catalytic domain) (Homo sapiens)?
6.00 to 7.00

# query: pIC50 | item CC(C)NC(=O)NCc1cccc(-c2cccc3nc(Nc4ccc(OCCN5CCCC5)cc4)nn23)c1 | system: AXL (human catalytic domain) (Homo sapiens)
6.00 to 7.00

# returns recorded pIC50 (system: AXL (human catalytic domain) (Homo sapiens)) for c1cc(-c2ccc3c(c2)OCCO3)n2nc(Nc3ccnc(OCCN4CCCC4)c3)nc2c1
6.00 to 7.00

Notebook entry, AXL (human catalytic domain) (Homo sapiens) assay: pIC50 of COc1ccc(-c2cccc3nc(Nc4ccc(OCCNCCN(C)C)cc4)nn23)cc1 = ?
6.00 to 7.00

Hi! What's the reported pIC50 for CCN(CC)CCC(=O)Nc1cccc(Nc2nc3cccc(-c4ccc5c(c4)OCCO5)n3n2)c1 on AXL (human catalytic domain) (Homo sapiens)?
6.00 to 7.00

* * *

Overview of recorded IC50 for various compounds
Molecular target: AXL (human catalytic domain) (Homo sapiens)
Construct: purchased Upstate Ltd. 14-512
Sequence (P30530 473-894): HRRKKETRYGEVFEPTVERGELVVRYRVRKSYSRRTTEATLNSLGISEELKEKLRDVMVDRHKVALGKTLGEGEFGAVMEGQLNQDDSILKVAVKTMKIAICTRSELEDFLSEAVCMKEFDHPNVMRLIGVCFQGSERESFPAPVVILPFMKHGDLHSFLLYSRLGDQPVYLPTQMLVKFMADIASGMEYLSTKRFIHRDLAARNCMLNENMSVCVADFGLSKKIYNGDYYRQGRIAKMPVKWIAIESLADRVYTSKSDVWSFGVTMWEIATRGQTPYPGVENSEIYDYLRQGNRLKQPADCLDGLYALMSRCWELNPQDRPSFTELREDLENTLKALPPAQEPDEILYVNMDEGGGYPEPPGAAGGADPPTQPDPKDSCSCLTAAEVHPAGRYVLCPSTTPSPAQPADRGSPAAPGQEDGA
Test: AXL (human catalytic domain) Enzyme Activity Assay (IMAP fluorescence polarisation)
Type: biochemical
Conditions: first data set; recombinant AXL isoform 1 aa473-894, 150 μM ATP
Experimental: Biological Methods AXL (human catalytic domain) Enzyme Activity Assay Reagents Kinase Assay Reaction Buffer: This consisted of 20 mM HEPES pH 7.0, 10 mM MgCl2, 1 mM DTT, […], 0.01% Triton X100 (v/v), and 0.01% BSA (w/v). All buffer components were purchased from Sigma-Aldrich at reagent grade or higher. […] ATP: Supplied by Sigma (product code A-7699). […] Final ATP concentration in the assay was 150 μM; this concentration represents the KM.ATP for this enzyme calculated in this assay. […]

Some entries whose results are on file:
COc1ccc(-c2cccc3nc(Nc4ccc(OCCCN)cc4)nn23)cc1 [XX-041]	< 1 µM
CN(C)CCOc1ccc(Nc2nc3cccc(-c4ccc5c(c4)OCO5)n3n2)cc1 [XX-048]	< 1 µM
Cc1cc(-c2cccc3nc(NC(=O)C4CC4)nn23)ccn1 [WW-087]	1 to 10 µM

Under AXL (human catalytic domain) (Homo sapiens): IC50 value of Nc1cccc(-c2cccc3nc(NC(=O)C4CC4)nn23)c1 [WW-054] ?
< 1 µM

Lab note: need IC50 for Cc1cccc(-c2cccc3nc(NC(=O)C4CC4)nn23)c1 [WW-034] on AXL (human catalytic domain) (Homo sapiens), anyone have it?
1 to 10 µM

State its IC50 on AXL (human catalytic domain) (Homo sapiens): COc1ccc(-c2cccc3nc(Nc4ccc(OCCO)cc4)nn23)cc1 [XX-011]
< 1 µM
